Where these numbers come from: patent US12528864

System: human CD96, native, on primary human T cells (human) (UniProt P40200)
Assay: flow cytometry on primary human CD3+ T cells
Attribute Measured: EC50 (nM)
Numbers only here, please. The scale is nM.

Query: Which EC50 is listed for 42Y073-1A01-191 (antibody, V domains shown) VH: QVQLVQSGAEVKKPGASVKVSCKASGYTFTKYRMHWVRQAPGQGLEWMGIINPQGGSTSYAQKFQGRVTMTRDTSTSTVYMELSSLRSEDTAVYYCARETAYYTTKGNWFDPWGQGTLVTVSA VL: DIQMTQSPSSLSASVGDRVTITCRASQSISSYLNWYQQKPGKAPKLLIYAASSLQSGVPSRFSGSGSGTDFTLTISSLQPEDFATYYCQQSLYPPRTFGGGTKVEIK ?
Reply: 0.38
